// reported pIC50 for each item listed
system: HCT-15; experiment: Cytotoxicity against human HCT15 cells; assay type: functional, cell-based
pIC50: −log10 of the molar value.
Readout name: pIC50

INSERT INTO assay_data (compound_structure_string, censoring_operator, observed_measurement) VALUES
  ('C/C=C(/C)C(=O)O[C@H]1C[C@@H](O)C2=CC(=O)C(=C(C)C)C[C@]2(C)[C@H]1C', '<', 4.00),
  ('C/C=C(/C)C(=O)O[C@H]1C[C@@H](OC(=O)/C(C)=C/C)C2=CC(=O)C(=C(C)C)C[C@]2(C)[C@H]1C', '=', 4.89),
  ('C=C1C[C@@H](OC(C)=O)[C@@H](C(C)C)[C@@H]2[C@@H](C(C)=O)[C@@H](OC(=O)/C(C)=C\C)C[C@@H]12', '=', 4.36),
  ('C/C=C(/C)C(=O)O[C@H]1C[C@@H](O)C2=CC(=O)C(C(C)(C)OO)=C[C@]2(C)[C@H]1C', '<', 4.00);

* * *

system: MCF7; test: Cytotoxicity against human MCF7 cells; format: functional, cell-based
The entries below are paired with their reported IC50.
Readout name: IC50

INSERT INTO measurements (compound_structure_string, observed_measurement) VALUES
  ('C/C=C(/C)C(=O)O[C@H]1C[C@@H](O)C2=CC(=O)C(=C(C)C)C[C@]2(C)[C@H]1C', '> 100 µM'),
  ('C/C=C(/C)C(=O)O[C@H]1C[C@@H](O)C2=CC(=O)C(C(C)(C)OO)=C[C@]2(C)[C@H]1C', '> 100 µM'),
  ('C/C=C(/C)C(=O)O[C@H]1C[C@@H](OC(=O)/C(C)=C/C)C2=CC(=O)C(=C(C)C)C[C@]2(C)[C@H]1C', '21 µM'),
  ('C=C1C[C@@H](OC(C)=O)[C@@H](C(C)C)[C@@H]2[C@@H](C(C)=O)[C@@H](OC(=O)/C(C)=C\C)C[C@@H]12', '33.9 µM');

* * *

The following molecules are shown together with reported IC50 values.
system: U-251; assay: Cytotoxicity against human U251 cells; assay type: functional, cell-based
Readout name: IC50 (µM)

INSERT INTO measurements (compound_structure_string, observed_measurement) VALUES
  ('C/C=C(/C)C(=O)O[C@H]1C[C@@H](O)C2=CC(=O)C(=C(C)C)C[C@]2(C)[C@H]1C', 24.1),
  ('C/C=C(/C)C(=O)O[C@H]1C[C@@H](OC(=O)/C(C)=C/C)C2=CC(=O)C(=C(C)C)C[C@]2(C)[C@H]1C', 17.6),
  ('C/C=C(/C)C(=O)O[C@H]1C[C@@H](O)C2=CC(=O)C(C(C)(C)OO)=C[C@]2(C)[C@H]1C', 33.7),
  ('C=C1C[C@@H](OC(C)=O)[C@@H](C(C)C)[C@@H]2[C@@H](C(C)=O)[C@@H](OC(=O)/C(C)=C\C)C[C@@H]12', 13);

* * *

tested on: K562; assay: Cytotoxicity against human K562 cells; type: functional, cell-based
Readout name: IC50 (µM)

INSERT INTO results (compound_structure_string, readout_unit, censoring_operator, observed_measurement) VALUES
  ('C=C1C[C@@H](OC(C)=O)[C@@H](C(C)C)[C@@H]2[C@@H](C(C)=O)[C@@H](OC(=O)/C(C)=C\C)C[C@@H]12', 'µM', '=', 13),
  ('C/C=C(/C)C(=O)O[C@H]1C[C@@H](O)C2=CC(=O)C(=C(C)C)C[C@]2(C)[C@H]1C', 'µM', '>', 100),
  ('C/C=C(/C)C(=O)O[C@H]1C[C@@H](OC(=O)/C(C)=C/C)C2=CC(=O)C(=C(C)C)C[C@]2(C)[C@H]1C', 'µM', '=', 51.1),
  ('C/C=C(/C)C(=O)O[C@H]1C[C@@H](O)C2=CC(=O)C(C(C)(C)OO)=C[C@]2(C)[C@H]1C', 'µM', '=', 46.3);
